# target of assay: α1β2γ2 GABAA receptor (Homo sapiens (Human), UniProt P14867+P47870)
# test details: Patch clamp electrophysiology of recombinant α1β2γ2 GABAA receptors in LTK cells
# Type: cell-based
# measurement context: LTK; potentiation of GABA EC20 (2 μM) current; read-out: GABAa alpha1 (α1β2γ2) Emax (%)
endpoint label: Emax

Quickly give me recorded Emax for C[C@@]1(O)CC[C@H]2[C@H](CC[C@@H]3[C@@H]2CC[C@]2(C)[C@@H](C(=O)Cn4nc5ccccc5n4)CC[C@@H]32)C1
0 to 500%

Retrieve Emax measured for C[C@@]1(O)CC[C@H]2[C@H](CC[C@@H]3[C@@H]2CC[C@]2(C)[C@@H](C(=O)Cn4ncc5c4CCCC5)CC[C@@H]32)C1 and print it.
0 to 500%

Give reported Emax value for C[C@@]1(O)CC[C@H]2[C@H](CC[C@@H]3[C@@H]2CC[C@]2(C)[C@@H](C(=O)Cn4nnc5ccccc54)CC[C@@H]32)C1
500 to 1000%

Name the recorded Emax of the item C[C@@]1(O)CC[C@H]2[C@H](CC[C@@H]3[C@@H]2CC[C@]2(C)[C@@H](C(=O)Cn4cc5ccccc5n4)CC[C@@H]32)C1 in your answer.
500 to 1000%

Determine its reported Emax: C[C@@]1(O)CC[C@H]2[C@H](CC[C@@H]3[C@@H]2CC[C@]2(C)[C@@H](C(=O)Cn4cc5ncccc5n4)CC[C@@H]32)C1
500 to 1000%

Indicate the recorded Emax value for this compound: C[C@@]1(O)CC[C@H]2[C@H](CC[C@@H]3[C@@H]2CC[C@]2(C)[C@@H](C(=O)Cn4ncc5ccccc54)CC[C@@H]32)C1
500 to 1000%

Respond only with Emax recorded for C[C@@]1(O)CC[C@H]2[C@H](CC[C@@H]3[C@@H]2CC[C@]2(C)[C@@H](C(=O)Cn4ncc5cccnc54)CC[C@@H]32)C1
500 to 1000%

Find the measured Emax of C[C@@]1(O)CC[C@H]2[C@H](CC[C@@H]3[C@@H]2CC[C@]2(C)[C@@H](C(=O)Cn4cc5cccnc5n4)CC[C@@H]32)C1 and report it.
500 to 1000%

Look up Emax of C[C@@]1(O)CC[C@H]2[C@H](CC[C@@H]3[C@@H]2CC[C@]2(C)[C@@H](C(=O)Cn4ncc5ncccc54)CC[C@@H]32)C1 and report it.
500 to 1000%

---

# target of assay: α1β2γ2 GABAA receptor (Homo sapiens (Human), UniProt P14867+P47870)
# test details: Patch clamp electrophysiology of recombinant α1β2γ2 GABAA receptors in LTK cells
# Format: cell-based
# measurement context: LTK, 10 μM compound, Qpatch, Ltk cells, GABA EC20 2 μM; read-out: α1β2γ2 GABA Qpatch in Ltk (Efficacy at 10 μm)
endpoint label: activity at 10 µM

See these solved cases before continuing.
>  <sample smiles>
C[C@]12CC[C@H]3[C@@H](CC[C@H]4C[C@@](O)(CF)CC[C@@H]43)[C@@H]1CC[C@@H]2C(=O)Cn1ncc2ccncc21

>  <activity at 10 µM>
100 to 500%

$$$$
>  <sample smiles>
COC[C@@]1(O)CC[C@H]2[C@@H](CC[C@@H]3[C@@H]2CC[C@]2(C)[C@@H](C(=O)Cn4ncc5ncccc54)CC[C@@H]32)C1

>  <activity at 10 µM>
> 500%

$$$$
>  <sample smiles>
C[C@@]1(O)CC[C@H]2[C@H](CC[C@@H]3[C@@H]2CC[C@]2(C)[C@@H](C(=O)Cn4nnc5cccnc54)CC[C@@H]32)C1

>  <activity at 10 µM>
> 500%

$$$$
>  <sample smiles>
C[C@@]1(O)CC[C@H]2[C@@H](CC[C@@H]3[C@@H]2CC[C@]2(C)[C@@H](C(=O)Cn4nnc5cnccc54)CC[C@@H]32)C1

>  <activity at 10 µM>
100 to 500%

$$$$
>  <sample smiles>
C[C@@]1(O)CC[C@H]2[C@@H](CC[C@@H]3[C@@H]2CC[C@]2(C)[C@@H](C(=O)Cn4nc5ccccc5n4)CC[C@@H]32)C1

>  <activity at 10 µM>
> 500%

$$$$

Quick one: give measured activity at 10 µM for CC[C@@]1(O)CC[C@H]2[C@@H](CC[C@@H]3[C@@H]2CC[C@]2(C)[C@@H](C(=O)Cn4ncc5ccncc54)CC[C@@H]32)C1
100 to 500%

State its activity at 10 µM for this molecule: CCOC[C@@]1(O)CC[C@H]2[C@@H](CC[C@@H]3[C@@H]2CC[C@]2(C)[C@@H](C(=O)Cn4ncc5ccncc54)CC[C@@H]32)C1
10 to 100%

// fetch activity at 10 µM given entry CC[C@@]1(O)CC[C@H]2[C@H](CC[C@@H]3[C@@H]2CC[C@]2(C)[C@@H](C(=O)Cn4cc5ncccc5n4)CC[C@@H]32)C1
> 500%

Indicate the recorded activity at 10 µM value for this molecule: COC[C@@]1(O)CC[C@H]2[C@H](CC[C@@H]3[C@@H]2CC[C@]2(C)[C@@H](C(=O)Cn4ncc5ncccc54)CC[C@@H]32)C1
> 500%

Identify the reported activity at 10 µM for the following entry. C[C@]12CC[C@H]3[C@@H](CC[C@@H]4C[C@@](O)(CF)CC[C@@H]43)[C@@H]1CC[C@@H]2C(=O)Cn1nc2ccc(F)cc2n1
100 to 500%

Please report the measured activity at 10 µM for Cc1cccc2nn(CC(=O)[C@H]3CC[C@H]4[C@@H]5CC[C@@H]6C[C@](C)(O)CC[C@@H]6[C@H]5CC[C@]34C)nc12
100 to 500%

Name the recorded activity at 10 µM of the molecule listed here: C[C@@]1(O)CC[C@H]2[C@H](CC[C@@H]3[C@@H]2CC[C@]2(C)[C@@H](C(=O)Cn4ncc5cc(C#N)ccc54)CC[C@@H]32)C1
> 500%

Give reported activity at 10 µM value for CC[C@@]1(O)CC[C@H]2[C@H](CC[C@@H]3[C@@H]2CC[C@]2(C)[C@@H](C(=O)Cn4ncc5ncccc54)CC[C@@H]32)C1
> 500%

Let me know recorded activity at 10 µM for C[C@@]1(O)CC[C@H]2[C@H](CC[C@@H]3[C@@H]2CC[C@]2(C)[C@@H](C(=O)Cn4nnc5cccc(F)c54)CC[C@@H]32)C1 , thanks.
> 500%

Fill in reported activity at 10 µM for this entry: C[C@@]1(O)CC[C@H]2[C@H](CC[C@@H]3[C@@H]2CC[C@]2(C)[C@@H](C(=O)Cn4ncc5nccnc54)CC[C@@H]32)C1
100 to 500%

Please report activity at 10 µM for the following molecule: C[C@@]1(O)CC[C@H]2[C@H](CC[C@@H]3[C@@H]2CC[C@]2(C)[C@@H](C(=O)Cn4nc5cc(Cl)cnc5n4)CC[C@@H]32)C1
> 500%

---

Reported activity at 10 µM values are given for each entry in this list.
# target of assay: α4β3δ GABAA receptor (Homo sapiens (Human), UniProt P28472+P48169)
# test details: Patch clamp electrophysiology of recombinant α4β3δ GABAA receptors in CHO cells
# Format: cell-based
# measurement context: 10 μM compound, manual patch, GABA EC20 2 μM, read-out: α4β3δ GABA Manual Patch in CHO (Efficacy at 10 μM)

>  <sample smiles>
C[C@]12CC[C@H]3[C@@H](CC[C@H]4C[C@@](O)(CF)CC[C@@H]43)[C@@H]1CC[C@@H]2C(=O)Cn1cc2ccc(F)cc2n1

>  <activity at 10 µM>
100 to 500%

$$$$
>  <sample smiles>
C[C@@]1(O)CC[C@H]2[C@H](CC[C@@H]3[C@@H]2CC[C@]2(C)[C@@H](C(=O)Cn4nc5cccc(F)c5n4)CC[C@@H]32)C1

>  <activity at 10 µM>
> 500%

$$$$

Give activity at 10 µM for C[C@]12CC[C@H]3[C@@H](CC[C@@H]4C[C@@](O)(CF)CC[C@@H]43)[C@@H]1CC[C@@H]2C(=O)Cn1nc2ccccc2n1
> 500%

State its activity at 10 µM for this compound: COc1ccc2nn(CC(=O)[C@H]3CC[C@H]4[C@@H]5CC[C@@H]6C[C@](C)(O)CC[C@@H]6[C@H]5CC[C@]34C)nc2c1
> 500%

Recall and state the measured activity at 10 µM for C[C@@]1(O)CC[C@H]2[C@H](CC[C@@H]3[C@@H]2CC[C@]2(C)[C@@H](C(=O)Cn4cc5nccnc5n4)CC[C@@H]32)C1 .
100 to 500%

Tell us which activity at 10 µM value is on record for C[C@@]1(O)CC[C@H]2[C@H](CC[C@@H]3[C@@H]2CC[C@]2(C)[C@@H](C(=O)Cn4cc5cc(F)ccc5n4)CC[C@@H]32)C1
100 to 500%

Consider the compound Cc1cccc2nn(CC(=O)[C@H]3CC[C@H]4[C@@H]5CC[C@@H]6C[C@](C)(O)CC[C@@H]6[C@H]5CC[C@]34C)nc12 . State its measured activity at 10 µM.
100 to 500%
